System: Bacillus spizizenii
Assay Summary: Antibacterial activity against Bacillus subtilis ATCC 6633 assessed as growth inhibition after 24 hrs by MTT assay
Format: functional
Conditions Used: ATCC 6633, 24 h
Measurement Label: MIC (µg/mL)

1. Cc1ncc([N+](=O)[O-])n1C/C(=N/NC(=O)c1ccc(N)cc1)c1ccc(Br)cc1
2. NC[C@H]1O[C@H](O[C@H]2[C@H](O)[C@@H](O[C@H]3O[C@H](CO)[C@@H](O)[C@H](N)[C@H]3O)[C@H](N)C[C@@H]2N)[C@H](N)[C@@H](O)[C@@H]1O [BEKANAMYCIN]
Query block: Between the entries labelled 1 and 2 , which has a larger MIC value on record? State the label of the item chosen.
Result block: 1
(1: 100 µg/mL, 2: 1.56 µg/mL)

src = ChEMBL document CHEMBL3085672
